Test system: SK-OV-3
Experiment: Photocytotoxicity in human SKOV3 cells assessed as cell death at 0.1 to 1 uM incubated for 6 hrs followed by PDT-1200 light irradiation at 20 J/cm2 measured after 16 hrs by MTT assay
Assay type: functional, cell-based
Activity calls are given as the source filed them. The calls are words filed in the database; no cut-off is given here.
PROPERTY LABEL: Activity

COc1ccc(/C=C/C2=[N+]3C(=C(c4ccccc4)c4c(C)c(I)c(/C=C/c5ccc(OC)c(OC)c5)n4[B-]3(F)F)C(C)=C2I)cc1OC : inactive
CC1=C(I)C(/C=C/c2ccccc2OCc2ccccn2)=[N+]2C1=C(c1ccc([N+](=O)[O-])cc1)c1c(C)c(I)c(/C=C/c3ccccc3OCc3ccccn3)n1[B-]2(F)F : inactive
COc1cc(/C=C/C2=[N+]3C(=C(c4ccc([N+](=O)[O-])cc4)c4c(C)c(I)c(/C=C/c5cc(OC)c(OC)cc5[N+](=O)[O-])n4[B-]3(F)F)C(C)=C2I)c([N+](=O)[O-])cc1OC : inactive
COc1ccc(/C=C/C2=[N+]3C(=C(c4ccc([N+](=O)[O-])cc4)c4c(C)c(I)c(/C=C/c5ccc(OC)c(OC)c5)n4[B-]3(F)F)C(C)=C2I)cc1OC : inactive

Every entry's value here was drawn from ChEMBL document CHEMBL4251734.
